System: human monoclonal antibody CRJB
Assay type: binding
The label is criterion met for Binding of CRJB (10 μg/ml) to looped/cyclic peptide (PEPSCAN-ELISA) below 80 and criterion not met for Binding of CRJB (10 μg/ml) to looped/cyclic peptide (PEPSCAN-ELISA) equal to or exceeding 80.

The examples below pair each entry with its known result.
LVVEELVRKREECLD : criterion met
SKGCLRVGGRCHPHV : criterion not met
LVPGFGKAYTIFNKT : criterion met
KGACKLKLCGVLGLR : criterion met

Please state whether Binding of CRJB (10 μg/ml) to looped/cyclic peptide (PEPSCAN-ELISA) is below 80 for RGLYKSLKGACKLKL criterion not met

Please state whether Binding of CRJB (10 μg/ml) to looped/cyclic peptide (PEPSCAN-ELISA) is below 80 for HLRKLVPGFGKAYTI criterion not met

Please state whether Binding of CRJB (10 μg/ml) to looped/cyclic peptide (PEPSCAN-ELISA) is below 80 for IMTTKSVSFRRLSHL criterion met
